Assay: Acute toxicity (LD50)
Conditions: in vivo, ip; mouse, single i.p. administration, mortality within 7 days
observation-type: LD50 at 168 h

Report measured LD50 at 168 h; entry is Cc1cc(N2CCSCC2)c(C#N)c(C)n1 [reference compound] 150 to 300 mg/kg

---

Assay: Acute toxicity (LD50)
Details: in vivo, iv; mouse, single i.v. administration, mortality within 7 days
Source text: 2. Acute toxicity The standard method for the determination of the LD50 values or LD50 ranges via the mortality occurring in Naval Medical Research Institute mice within 7 days after a single intravenous (i.v.), intraperitoneal (i.p.) or oral (p.o.) administration was used.
observation-type: LD50 at 168 h

Illustrative cases are given below, each with its answer.
| smiles-record | LD50 at 168 h |
| --- | --- |
| Cc1cc(N2CCCCCC2)c(C#N)c(C)[n+]1[O-] | 50 to 100 mg/kg |
| Cc1cc(N2CCCCC2)c([N+](=O)[O-])c(C)[n+]1[O-] | 100 to 200 mg/kg |

Next compound, please.
Could you please provide reported LD50 at 168 h for Cc1cc(N2CCOCC2)c([N+](=O)[O-])c(C)[n+]1[O-] ? Thanks! > 200 mg/kg

All values here come from patent US4859663A.
